Each recorded value in this set is attributed to BindingDB's records for doi:10.1021/jm020335m.

experiment: Inhibition of concanavalin A stimulated T-cell proliferation in human PBMCs
recorded.endpoint: EC50 (nM)

a = C=CCC1Oc2ccc(O)c(OC)c2-c2ccc3c(c21)C(C)=CC(C)(C)N3 (stereo unspecified)
b = C=CCC1Oc2cccc(NC)c2-c2ccc3c(c21)C(C)=CC(C)(C)N3 (stereo unspecified)
Query block: Hi! Which is lower in terms of EC50, the first one a or the second one b ? Lab note: record the label of whichever item you select.
Result block: a
(a: 145 nM, b: 418 nM)

###

test: Inhibition of concanavalin A stimulated T-cell proliferation in human PBMCs
recorded.endpoint: EC50 (nM)

molecule	recorded.endpoint	unit.string	recorded.measurement
C=CCC1Oc2cccc(OC(F)F)c2-c2ccc3c(c21)C(C)=CC(C)(C)N3 (centres undefined)	EC50	nM	563
C=CCC1Oc2cccc(OC)c2-c2ccc3c(c21)C(C)=CC(C)(C)N3 (centres undefined)	EC50	nM	780
C=CCC1Oc2cccc(Cl)c2-c2ccc3c(c21)C(C)=CC(C)(C)N3 (centres undefined)	EC50	nM	440
